Details: pH 6.8
Please provide measured aqueous solubility for the entries that follow.
Your answer should be a plain number; it is taken to be in µg/mL.

Per the record, CC(C)(C)Nc1cc(NCC2CCOCC2)c2ncc(-c3ccc(C(=O)NC4CC4)cc3)n2n1 has aqueous solubility of 0.4

Per the record, c1ccc(-c2n[nH]c(C3CCN(c4cnc5ccccc5n4)CC3)n2)cc1 has aqueous solubility of 6.21

Per the record, Cc1cccc(OC2CN(C(=O)Cn3c(C)nn(-c4ccccc4)c3=O)C2)c1 has aqueous solubility of 5.11

Per the record, CC(=O)c1c(C)n(S(=O)(=O)c2ccc(C)cc2)c2ccc(NS(=O)(=O)c3ccc(C)cc3)cc12 has aqueous solubility of 0.53

Per the record, Cc1cc(N(C)C)nc(-n2cnc(C#N)n2)n1 has aqueous solubility of 23.3

###

EXPERIMENTAL_READOUT: MDR1-MDCK efflux ratio

Per the record, CCOc1cc(N2CCOC3(CCCC3)C2)ncn1 has MDR1-MDCK efflux ratio of 0.579

Per the record, C/C(=C/COc1c2occc2cc2ccc(=O)oc12)CO has MDR1-MDCK efflux ratio of 0.662

Per the record, O=C(Cn1c(-c2ccc(F)cc2)nc2ccccc21)N1CCOCC1 has MDR1-MDCK efflux ratio of 12.8

Per the record, CC(C)c1cc(N(C)Cc2nc(C3CC3)n[nH]2)n[nH]1 has MDR1-MDCK efflux ratio of 16.1

Per the record, Cc1nc(N2CCN(C)CC2)nc(C)c1NC(=O)C1CCCCC1 has MDR1-MDCK efflux ratio of 3.54

Per the record, Cc1cnc(CNCc2cccc3c2OCO3)s1 has MDR1-MDCK efflux ratio of 0.607

Per the record, COc1ccccc1CNc1n[nH]c2nc([C@H]3CCCN(CC(=O)N4CCCC4)C3)ccc12 has MDR1-MDCK efflux ratio of 43.9

Per the record, Cc1cc(C)cc(OCCN(C)C(=O)NCCS(=O)(=O)N(C)C)c1 has MDR1-MDCK efflux ratio of 12.1

Per the record, Brc1nnc(N2CCC(OC3CCCC3)CC2)s1 has MDR1-MDCK efflux ratio of 0.582

Per the record, CCn1ncc(CN2CCC(c3nc(N(C)C)ncc3-c3ccc(OC)cc3)CC2)c1C has MDR1-MDCK efflux ratio of 15.6

Per the record, Cc1noc(-c2ccc(NC(=O)Cc3ccccc3)cc2)n1 has MDR1-MDCK efflux ratio of 0.573

Per the record, OCCN1CCC(c2ccncn2)CC1 has MDR1-MDCK efflux ratio of 0.615

###

Please provide measured intrinsic clearance, rat liver microsomes for the entries that follow.
Your answer should be a plain number; it is taken to be in mL/min/kg.

Per the record, CCOc1ccnc(NCCCc2nc3cc(F)ccc3[nH]2)n1 has intrinsic clearance, rat liver microsomes of 3280

Per the record, CCONC(=O)c1cnn(-c2cccc(Cl)c2)c1 has intrinsic clearance, rat liver microsomes of 446

Per the record, Cc1nn(CCC#N)c(C)c1Oc1ccccc1O has intrinsic clearance, rat liver microsomes of 112

Per the record, COc1ccc(OC)c(S(=O)(=O)Nc2cccc(CCc3ccccn3)c2)c1 has intrinsic clearance, rat liver microsomes of 3140

Per the record, c1cc(-c2noc(CN3CCOCC3)n2)ccn1 has intrinsic clearance, rat liver microsomes of 29.8

Per the record, Cc1cccnc1CN1CCC(O)(c2ccccc2)CC1 has intrinsic clearance, rat liver microsomes of 684

Per the record, CS(=O)(=O)NC1CCCN(c2nc3ccccc3o2)C1 (stereo unspecified) has intrinsic clearance, rat liver microsomes of 42.3

Per the record, CCCc1cc(C(=O)Nc2ccc(-c3nnc(C)[nH]3)cc2)no1 has intrinsic clearance, rat liver microsomes of 290

Per the record, CC(=O)NC[C@H]1C[C@]2(C)[C@@H](CCCC[C@]2(C)O)N1CC1(O)CCCC1 has intrinsic clearance, rat liver microsomes of 107

Per the record, N#Cc1ccc(CCC(=O)Nc2ccncc2)cc1 has intrinsic clearance, rat liver microsomes of 60.3

Per the record, COCC1(CNS(=O)(=O)c2ccc3[nH]cnc3c2)CCC1 has intrinsic clearance, rat liver microsomes of 860

Per the record, COc1ccc(C2(NCc3cnn(-c4ccccc4)c3)CCCC2)cc1 has intrinsic clearance, rat liver microsomes of 976

Per the record, CNC(=O)C1(Cc2ccc(-c3cccnc3)cc2)CCN(Cc2cccc(F)c2)C1 (stereo unspecified) has intrinsic clearance, rat liver microsomes of 982

Per the record, CCCN1CCn2nc(-c3nc4cc(OC)ccc4[nH]3)cc2C1 has intrinsic clearance, rat liver microsomes of 280

Per the record, COC(=O)CC1=NN(c2ccc(OC)cc2)C(=O)/C1=C(/C)NCc1ccc(OC)cc1 has intrinsic clearance, rat liver microsomes of 503

Per the record, CC(C)c1nnc(NCc2ccn(C)c2)o1 has intrinsic clearance, rat liver microsomes of 63.1

Per the record, CCCN(C(=O)c1ccccc1N)C(C)C has intrinsic clearance, rat liver microsomes of 342

Per the record, N#CCCN(C(=O)c1sccc1C#N)C12CC3CC(CC(C3)C1)C2 has intrinsic clearance, rat liver microsomes of 1600

Per the record, Cc1ccc(O)c(CN2CCC(c3nc4ccccc4o3)CC2)n1 has intrinsic clearance, rat liver microsomes of 229

###

Settings: pH 6.8
EXPERIMENTAL_READOUT: aqueous solubility (µg/mL)
Your answer should be a plain number; it is taken to be in µg/mL.

Per the record, CC(C)(C(=O)NCc1ccccn1)c1ccccc1 has aqueous solubility of 77.6

Per the record, Cc1noc(NCc2cccc(-c3cccnc3)c2)n1 has aqueous solubility of 34.6

Per the record, c1ccc(CN2CCn3nccc3C2)cc1 has aqueous solubility of 15.3

Per the record, CCNC(=O)N1CCC(c2nc(-c3ccccc3)no2)CC1 has aqueous solubility of 52.8

Per the record, O=C(Cn1nc2n(c1=O)-c1ccccc1C1=NCCN12)N1CCCc2ccccc21 has aqueous solubility of 1.63

Per the record, O=C(Cc1ccc2c(c1)CCC2)Nc1nc2ccccc2o1 has aqueous solubility of 3.63

Per the record, CO[C@H]1CC[C@@H](C(=O)c2ccc3nc4c(cc3c2)CCCO4)CC1 has aqueous solubility of 44.5

Per the record, O=C(C1CC1c1ccc(F)cc1)N1CCC(n2c(=O)[nH]c3ccccc32)CC1 (stereo unspecified) has aqueous solubility of 47.8

Per the record, O=c1c(-c2ccc(F)cc2)c(-c2ccncc2)[nH]n1-c1ccc(Cl)cc1 has aqueous solubility of 21.8

Per the record, CCOC1CCN(C(=O)Cn2c(=O)[nH]c3ccccc32)CC1 has aqueous solubility of 47.3

Per the record, Cc1noc2nc(-c3ccccc3F)cc(C(=O)O)c12 has aqueous solubility of 39.1

###

Please provide measured MDR1-MDCK efflux ratio for the entries that follow.
Answer with the value's number alone.

Per the record, c1ccc(CN2CCn3nccc3C2)cc1 has MDR1-MDCK efflux ratio of 0.584

Per the record, COCCOc1cnc2ccn([C@H](C)c3nnc4c(F)cc(-c5cnn(C)c5)cn34)c(=O)c2c1 has MDR1-MDCK efflux ratio of 126

Per the record, COc1ccc(C)cc1S(=O)(=O)NCCC(=O)Nc1ccccc1C has MDR1-MDCK efflux ratio of 16.9

Per the record, COc1ccc(Nc2ncnc3sccc23)c(OC)c1 has MDR1-MDCK efflux ratio of 0.572

Per the record, COc1ccc(CNC(=O)c2nnn(-c3ccc(OC)cc3)c2N)cc1 has MDR1-MDCK efflux ratio of 0.513

Per the record, O=C(CSc1ccc2c(c1)OCCO2)NC1CCCC1 has MDR1-MDCK efflux ratio of 0.73

Per the record, N#Cc1ccc(COc2cnc3ccccc3n2)cc1 has MDR1-MDCK efflux ratio of 0.507

Per the record, O=C(Cc1ccc2c(c1)CCC2)Nc1nc2ccccc2o1 has MDR1-MDCK efflux ratio of 0.499

Per the record, Cc1cn2nc(-c3cc(=O)n4cc(N5CCNC6(CC6)C5)ccc4n3)cc(C)c2n1 has MDR1-MDCK efflux ratio of 12.7

Per the record, O=C(CCNC(=O)c1ccc(OC(F)(F)F)cc1)N[C@@H]1CCCc2ccccc21 has MDR1-MDCK efflux ratio of 3.14

Per the record, CC(=O)N1CCN(C(=O)[C@H]2CCCCN2C(=O)OC(C)(C)C)CC1 has MDR1-MDCK efflux ratio of 9.44

Per the record, Cc1ccc2nc(C)c(C(=O)N3CCC(C(=O)Nc4ccncc4)CC3)cc2c1 has MDR1-MDCK efflux ratio of 36.9

Per the record, COc1cc(Nc2cc(-c3cccc(C#N)c3)ccn2)ccc1N1CCN(C)CC1 has MDR1-MDCK efflux ratio of 3.85

Per the record, O=C(CSc1ncn[nH]1)N(C1CCCCC1)C1CCCCC1 has MDR1-MDCK efflux ratio of 2.57

Per the record, Cc1cc(C)n(-c2ccc(CNC(=O)C3CCC3)cn2)n1 has MDR1-MDCK efflux ratio of 1.08

Per the record, Cc1c(Cl)ccc2cc3n(c12)[C@@H](C)CNC3=O has MDR1-MDCK efflux ratio of 0.513

Per the record, CCCNC(=O)C1(NCc2cncnc2)CCCCC1 has MDR1-MDCK efflux ratio of 7.46

Per the record, CCc1cnc(CNC(=O)N2CCC(n3cncn3)CC2)s1 has MDR1-MDCK efflux ratio of 24.7

Per the record, Cc1nc2cc(NC(=O)Cc3c(C)nc4ccccc4c3C)ccc2o1 has MDR1-MDCK efflux ratio of 4.57

Per the record, O=C(CNc1ccc(C(=O)N2CCCC2)cc1)N1CCCCC1 has MDR1-MDCK efflux ratio of 5.78

Per the record, N[C@@H]1CCCN(c2c(/C=C3\SC(=O)NC3=O)cccc2-c2ccccc2)C1 has MDR1-MDCK efflux ratio of 28.9

Per the record, c1ccc(C(c2ccccc2)c2noc(Cn3cnc(C4CC4)n3)n2)cc1 has MDR1-MDCK efflux ratio of 1.14

Per the record, CC(=O)NC1CCC(NCCc2c(C)cccc2C)CC1 (configuration not stated) has MDR1-MDCK efflux ratio of 19.8

Per the record, CCCCN1CCc2nc3cc(C4CC4)nn3c(O)c2C1 has MDR1-MDCK efflux ratio of 26.5

Per the record, Nc1nnc(-c2ccc3c(c2)OCCO3)o1 has MDR1-MDCK efflux ratio of 0.657

Per the record, N#Cc1c(F)cccc1Oc1cccnc1 has MDR1-MDCK efflux ratio of 0.634

Per the record, CCn1cc(NC(=O)c2ccccc2C)cn1 has MDR1-MDCK efflux ratio of 0.593

Per the record, Cc1ccc(-c2csc(CC(N)=O)n2)cc1C has MDR1-MDCK efflux ratio of 0.752

Per the record, CC(C)C(=O)Nc1ccc2cnn(C(C)C)c2c1 has MDR1-MDCK efflux ratio of 1.42

Per the record, O=C(Cn1nc2n(c1=O)-c1ccccc1C1=NCCN12)N1CCc2ccccc21 has MDR1-MDCK efflux ratio of 22.4

Per the record, O=C(OCc1cc(Cl)ccn1)c1ccc2[nH]c(C(F)F)nc2c1 has MDR1-MDCK efflux ratio of 1.37

Per the record, CC#CC(=O)N1CCC[C@@H]1c1nc(-c2ccc(C(=O)Nc3ccccn3)cc2)c2c(N)nccn12 has MDR1-MDCK efflux ratio of 37.1

Per the record, N#Cc1ccc(CCC(=O)Nc2ccncc2)cc1 has MDR1-MDCK efflux ratio of 1.39

Per the record, Clc1ccc(-c2ccc(CNCC3CCCO3)o2)c(Cl)c1 (configuration not stated) has MDR1-MDCK efflux ratio of 0.624

Per the record, CCOc1nc(-c2ccc(Cl)c(Cl)c2)n(-c2cccc(NC(=O)c3ccc(F)cc3)c2)n1 has MDR1-MDCK efflux ratio of 2.67

Per the record, c1cncc(-c2nnc3n2[C@H]2CN(Cc4cccs4)C[C@H]2CC3)c1 has MDR1-MDCK efflux ratio of 2.69

Per the record, COc1cc(/C=C2\CCCN([C@@H](C)c3ccc(F)cc3)C2=O)ccc1-n1cnc(C)c1 has MDR1-MDCK efflux ratio of 1.48

Per the record, COc1cccc(C(=O)Nc2nccs2)c1 has MDR1-MDCK efflux ratio of 0.562

Per the record, COc1cccc(CN2Cc3ccccc3OC3(CCOCC3)C2)c1 has MDR1-MDCK efflux ratio of 0.527

Per the record, CN1CCC(Cc2cccc(-c3nccs3)n2)C1 (configuration not stated) has MDR1-MDCK efflux ratio of 1.16

Per the record, c1ccc(-c2ccc(CN3CCCCCCC3)cc2)cc1 has MDR1-MDCK efflux ratio of 0.675

Per the record, CC(C)c1cc(N2CCc3[nH]nc(C4CC4)c3C2)n2nccc2n1 has MDR1-MDCK efflux ratio of 6.42

Per the record, Cc1sc(-c2ccccn2)nc1-c1ccc(NC(=O)C(C)C)cc1 has MDR1-MDCK efflux ratio of 0.624

Per the record, Cc1cc(C(=O)N(C)CCCC2CCCC2)cc(C)n1 has MDR1-MDCK efflux ratio of 0.782

Per the record, CC(=O)N1CCN(C(=O)CCc2ccc(-c3ccccc3)[nH]2)CC1 has MDR1-MDCK efflux ratio of 8.83

Per the record, O=C(c1ccccc1-n1cccn1)N1CCN(Cc2cccnc2)CC1 has MDR1-MDCK efflux ratio of 19.3

Per the record, O=c1c2ccccc2nnn1CCOc1ccc(F)cc1 has MDR1-MDCK efflux ratio of 0.42

Values were extracted from the Biogen ADME set (Fang et al. 2023).
